- Measurement Target: Cytochrome P450 2C9 (Homo sapiens)
- Sequence (P11712 whole entry): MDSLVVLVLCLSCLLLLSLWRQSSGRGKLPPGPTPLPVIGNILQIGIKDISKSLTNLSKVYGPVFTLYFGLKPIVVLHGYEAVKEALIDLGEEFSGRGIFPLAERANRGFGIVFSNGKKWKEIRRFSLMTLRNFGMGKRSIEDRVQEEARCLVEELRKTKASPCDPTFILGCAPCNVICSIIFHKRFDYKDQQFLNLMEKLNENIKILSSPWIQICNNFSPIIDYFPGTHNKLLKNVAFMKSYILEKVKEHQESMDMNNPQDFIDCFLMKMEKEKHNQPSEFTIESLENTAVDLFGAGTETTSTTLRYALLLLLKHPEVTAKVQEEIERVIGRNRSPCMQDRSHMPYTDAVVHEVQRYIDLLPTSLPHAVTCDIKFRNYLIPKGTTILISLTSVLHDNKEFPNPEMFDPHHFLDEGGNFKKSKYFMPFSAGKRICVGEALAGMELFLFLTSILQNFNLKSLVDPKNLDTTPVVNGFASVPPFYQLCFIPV
- Experiment Notes: Inhibition of CYP2C9 in human liver microsomes using diclofenac as substrate
- Assay type: ADME, Microsome
pIC50: −log10 of the molar value.
Recorded Metric: pIC50

CCn1cc(-c2ccnc3[nH]c(-c4cccc(CN(C)C)c4)cc23)c(-c2ccc(NC(=O)N(C)C)cc2)n1 4.42

* * *

- Experiment Notes: Mean residence time in mouse at 2 mg/kg, iv administered as single dose
- Type: ADME, organism-based
- Parameters: dose 2 mg/kg, route intravenous
- Assay Context: in vivo
Recorded Metric: MRT (min)

Compound	Recorded Metric	Recorded Value
CCn1cc(-c2ccnc3[nH]c(-c4cccc(CN(C)C)c4)cc23)c(-c2ccc(NC(=O)N(C)C)cc2)n1 [GSK-1070916]	MRT	18
